Target: FadR WT (Escherichia coli K12, UniProt P0A8V6 1-239)
Experiment: EMSA; Roche DIG gel shift binding buffer (composition not stated), 15 min, room temperature; 0.1 pmol (Fig. 3) or 0.2 pmol (Fig. 6) probe; 7-7.5% native PAGE
PARAMETER MEASURED: binding result

BINDER	PARAMETER MEASURED	RESULT
fabA probe (dsDNA) DNA 1: TTTATTCCGAACTGATCGGACTTGTTCAGCGTACACGTGTTAGCTATCCTGCGTGC DNA 2: GCACGCAGGATAGCTAACACGTGTACGCTGAACAAGTCCGATCAGTTCGGAATAAA	binding result	binds
fadL probe 2 (dsDNA) DNA 1: CTCTCGCCACTGGTCTGATTTCTAAGATGTACCTC DNA 2: GAGGTACATCTTAGAAATCAGACCAGTGGCGAGAG	binding result	binds
